Reference source for all entries: patent US10098902B2

pIC50: −log10 of the molar value.
This document collects pIC50 values reported for human arginase I (ARG I) (Homo sapiens (Human), UniProt P05089).

COMPOUND	pIC50
NC[C@@H]1C[C@H](CCCB(O)O)[C@](N)(C(=O)O)C1 (racemic)	6.60 to 10.00
N[C@@]1(C(=O)O)CN(CCCc2ccc(C(=O)O)cc2)C[C@@H]1CCCB(O)O	6.60 to 10.00
N[C@@]1(C(=O)O)CN(CC2Cc3ccc(Cl)cc3CN2)C[C@@H]1CCCB(O)O (stereo partly drawn)	6.60 to 10.00

Task: // query pIC50 value for entry N[C@@]1(C(=O)O)CN(CC2CCCNC2)C[C@@H]1CCCB(O)O (stereo partly drawn)
Result: 6.60 to 10.00

Task: // query pIC50 value for entry "N[C@@]1(C(=O)O)CN(Cc2ccccc2)C[C@@H]1CCCB(O)O"
Result: 6.00 to 6.60

Task: // query pIC50 value for entry "N[C@@]1(C(=O)O)CN(C(=O)[C@@H]2CCCN2)C[C@@H]1CCCB(O)O"
Result: 6.60 to 10.00

Task: // query pIC50 value for entry N[C@@]1(C(=O)O)CCC[C@@H]1CCCB(O)O (racemic)
Result: 6.00 to 6.60

Task: // query pIC50 value for entry "N[C@@]1(C(=O)O)CN(CCN2CCCC2)C[C@@H]1CCCB(O)O"
Result: 6.60 to 10.00

Task: // query pIC50 value for entry "CN[C@@]1(C(=O)O)CNC[C@@H]1CCCB(O)O"
Result: 6.00 to 6.60

Task: // query pIC50 value for entry N[C@@]1(C(=O)O)CN(C2CCNC2)C[C@@H]1CCCB(O)O (stereo partly drawn)
Result: 6.60 to 10.00

Task: // query pIC50 value for entry "N[C@@]1(C(=O)O)CN(CC2CCNCC2)C[C@@H]1CCCB(O)O"
Result: 6.00 to 6.60

Task: // query pIC50 value for entry "N[C@@]1(C(=O)O)CCN[C@@H]1CCCB(O)O"
Result: < 5.30

Task: // query pIC50 value for entry "Cc1ccncc1N1C[C@H](CCCB(O)O)[C@](N)(C(=O)O)C1"
Result: 5.70 to 6.00

Task: // query pIC50 value for entry N[C@@]1(C(=O)O)CN(C(=O)c2ccc(F)cc2)C[C@@H]1CCCB(O)O (racemic)
Result: 6.00 to 6.60

Task: // query pIC50 value for entry "N[C@@]1(C(=O)O)CN(C[C@@H]2Cc3ccccc3CN2)C[C@@H]1CCCB(O)O"
Result: 6.60 to 10.00

Task: // query pIC50 value for entry "N[C@@]1(C(=O)O)CN(CCCc2ccc(Cl)cc2)C[C@@H]1CCCB(O)O"
Result: 6.00 to 6.60

Task: // query pIC50 value for entry N[C@@]1(C(=O)O)C[C@@H](NCc2ccccc2)C[C@@H]1CCCB(O)O (racemic)
Result: 6.60 to 10.00

Task: // query pIC50 value for entry "N[C@@]1(C(=O)O)CNC[C@@H]1CCCB(O)O"
Result: 6.00 to 6.60
